The values you see were collected from patent US7998987B2.

# Measurement Target: c-Met (Homo sapiens, UniProt P08581)
# Sequence (P08581 25-1390): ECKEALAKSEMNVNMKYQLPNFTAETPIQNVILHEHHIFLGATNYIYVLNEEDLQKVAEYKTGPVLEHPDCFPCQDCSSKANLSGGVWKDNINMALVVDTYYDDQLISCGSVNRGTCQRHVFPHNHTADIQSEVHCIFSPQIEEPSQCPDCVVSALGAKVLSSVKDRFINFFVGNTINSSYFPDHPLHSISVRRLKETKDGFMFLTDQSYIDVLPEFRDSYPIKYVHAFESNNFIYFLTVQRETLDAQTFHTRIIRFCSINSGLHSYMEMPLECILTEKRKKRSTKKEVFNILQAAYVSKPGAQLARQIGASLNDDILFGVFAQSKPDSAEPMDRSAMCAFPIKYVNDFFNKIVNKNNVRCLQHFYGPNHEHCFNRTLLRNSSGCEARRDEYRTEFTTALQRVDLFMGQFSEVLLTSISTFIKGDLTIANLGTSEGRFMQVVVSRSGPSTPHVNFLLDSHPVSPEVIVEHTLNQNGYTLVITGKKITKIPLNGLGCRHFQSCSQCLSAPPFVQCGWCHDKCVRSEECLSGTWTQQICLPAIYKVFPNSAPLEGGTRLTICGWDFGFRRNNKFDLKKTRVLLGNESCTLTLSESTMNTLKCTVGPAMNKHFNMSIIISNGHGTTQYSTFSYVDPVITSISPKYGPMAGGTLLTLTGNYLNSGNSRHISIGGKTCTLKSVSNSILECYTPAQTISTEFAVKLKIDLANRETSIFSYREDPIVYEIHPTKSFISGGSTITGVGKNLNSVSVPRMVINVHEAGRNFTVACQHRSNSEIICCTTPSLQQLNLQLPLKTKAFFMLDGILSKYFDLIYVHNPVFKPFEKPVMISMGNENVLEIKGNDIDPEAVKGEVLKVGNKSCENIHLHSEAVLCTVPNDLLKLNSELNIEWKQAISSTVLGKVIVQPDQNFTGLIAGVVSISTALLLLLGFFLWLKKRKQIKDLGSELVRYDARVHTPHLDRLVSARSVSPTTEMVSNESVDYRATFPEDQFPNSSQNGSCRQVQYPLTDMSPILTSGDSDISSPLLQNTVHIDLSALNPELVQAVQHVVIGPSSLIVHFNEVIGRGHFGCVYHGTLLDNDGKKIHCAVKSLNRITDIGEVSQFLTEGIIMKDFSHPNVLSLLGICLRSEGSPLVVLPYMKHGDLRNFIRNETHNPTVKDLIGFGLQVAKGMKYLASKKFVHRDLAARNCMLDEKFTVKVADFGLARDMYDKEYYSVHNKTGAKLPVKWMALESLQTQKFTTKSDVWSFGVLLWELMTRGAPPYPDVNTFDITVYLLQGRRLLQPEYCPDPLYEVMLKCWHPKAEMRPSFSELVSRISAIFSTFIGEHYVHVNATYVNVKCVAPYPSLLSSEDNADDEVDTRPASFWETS
# Method Description: Ki determination for the inhibition of c-Met kinase activity (standard coupled enzyme system)
# Assay type: biochemical
# Test Context: coupled enzyme system, 200 μM ATP, 10 μM polyGluTyr, 80 nM c-Met, 30° C.; read-out: c-Met Ki
Measured Metric: Ki

[[record]]
compound = "Oc1ccc(Cc2nnc3sc(Nc4cccc(F)c4)nn23)cc1Cl"
result = "< 100 nM"

[[record]]
compound = "CNC(=O)c1cccc(Nc2ccc3nnc(Cc4ccc(O)cc4)n3n2)c1"
result = "100 to 2000 nM"

[[record]]
compound = "Oc1ccc(Cc2nnc3sc(Nc4ccccn4)nn23)cc1"
result = "> 2000 nM"


Query: Recorded Ki for Oc1ccc(Cc2nnc3ccc(Nc4cccc(C(F)(F)F)c4)nn23)cc1 , please?
Response: < 100 nM

Query: Recorded Ki for N#Cc1cccc(Nc2nn3c(Cc4ccc(O)cc4)nnc3s2)c1 , please?
Response: > 2000 nM

Query: Recorded Ki for CNC(=O)c1nn2c(C(C)c3ccc(O)cc3)nnc2s1 (centres unmarked) , please?
Response: > 2000 nM

Query: Recorded Ki for Cc1cc(C)cc(Nc2ccc3nnc(Cc4ccc5c(c4)OCO5)n3n2)c1 , please?
Response: 100 to 2000 nM

Query: Recorded Ki for Oc1ccc(Cc2nnc3sc(Nc4ccc(Cl)cc4)nn23)cc1Cl , please?
Response: 100 to 2000 nM
